# System: CAKI-1 renal
# experiment_description: NCI tumour cell line growth inhibition, 48 h
molecules and their reported TGI

# count of solved cases: 5
CO[C@H]1O[C@@H]2CO[C@@H](c3ccccc3)O[C@H]2[C@@H]2C/C=C\CCC[C@@]12O	> 100 µM
C[Si](C)(C)C(CCCCSc1ccccc1)(Sc1ccccc1)Sc1ccccc1	> 100 µM
CN(C(=O)c1ccc2c(c1)sc1c(=O)n(C)c3ccccc3c12)c1ccccc1	> 100 µM
CC1(C)C(CCO)CC1n1ccc(=O)[nH]c1=O (centres undefined)	> 100 µM
COc1ccc(-c2cc(C(=O)Nc3cc(C(F)(F)F)cc(C(F)(F)F)c3)c3ccccc3n2)cc1	25.5 µM

## Task Requested read-out: TGI. Entry: C[S+](C)CC1OC(n2cnc3c(N)ncnc32)C(O)C1O (centres undefined)
## Result > 225 µM

## Task Next: `COc1cccc(CN(C)c2ccc(CO)c(Cl)c2)c1`
## Result > 59.3 µM

## Task Can you handle `C[Si](C)(c1ccc(C(=O)O)cc1)c1ccc(C(=O)O)cc1` next?
## Result > 100 µM

## Task Check CCC(COC(=O)CC[C@@H](NC(=O)C(C)NC(=O)C(C)OC1C(O)C(CO)OC(OCc2ccccc2)C1NC(C)=O)C(N)=O)NC1c2ccccc2Nc2cccc([N+](=O)[O-])c21 (some centres undefined) too.
## Result > 100 µM

----------
List of TGI values.
# Tested on: RPMI-8226 leukemia
# experiment_description: NCI tumour cell line growth inhibition, 48 h

## Task Which measured TGI value corresponds to `Cc1ccc2nc(-c3ccc(OCC(=O)N=Nc4c(O)[nH]c5ccccc45)cc3)[nH]c2c1` ?
## Result 17.8 µM

## Task Now consider `O=c1c2cc(-c3ccccc3)sc2ncn1Cc1ccc(Cl)c(Cl)c1` and answer again.
## Result > 100 µM

----------
# Tested on: SF-268 CNS
# experiment_description: NCI tumour cell line growth inhibition, 48 h
TGI for assorted compounds
Dear colleague, please return just the value in µM, with no unit written.

Please review the entries below; each comes with its answer.
CN(Cc1ccc(C(F)(F)F)cc1)CC(O)C(=O)Nc1ccc(Cl)cc1 (stereo not given)	2.95
CC[C@@]1(OC(=O)CN)C(=O)OCc2c1cc1n(c2=O)Cc2c-1nc1cc3c(cc1c2CCl)OCO3	0.516
CCCCCN(CCCCC)CC(O)c1cc(Cl)ccc1OC (stereo not given)	24.4

Attention now shifts to the item below.
## Task What value of TGI has been reported for the following compound? `CCn1c(-c2cc3c([nH]c4ccccc43)c(-c3cccc(O)c3)n2)n[nH]c1=S`
## Result 17.4

----------
# Tested on: A498 renal
# experiment_description: NCI tumour cell line growth inhibition, 48 h
The molecules listed here are annotated with their TGI.

[O-]c1ccccc1C=Nc1ccc2c(c1)CCC2.[O-]c1ccccc1C=Nc1ccc2c(c1)CCC2.[O]=[U+2]=[O]	> 100 µM
CNc1ccc2ncccc2c1[N+](=O)[O-]	> 100 µM
O=S(=O)(O)c1cccc2cccc(N=Nc3c(O)ccc4ccccc34)c12	> 100 µM
Cc1ccc(S(=O)(=O)[C@@H](Cl)[C@H]2N=C(Cl)NN=C2c2ccccc2)cc1	35.7 µM
CN(C)c1nc(=NCc2ccco2)ss1	> 100 µM

## Task Would you mind telling me what TGI value was observed for `Cc1c(C(=O)/C=C/C=C/c2ccccc2)[n+](=O)c2ccccc2n1[O-]` ?
## Result > 100 µM

## Task Proceed to `C=C[C@@]1(O)CCCC[C@@H]1CC(Sc1ccccc1)Sc1ccccc1`
## Result 85 µM

## Task Subsequent entry: `NS(=O)(=O)c1ccc(N=Nc2c(O)[nH]c3ccc(C(=O)NCc4ccncc4)cc23)cc1`
## Result > 25 µM

## Task // next record `C#CCNC(=S)N/N=C(\C)c1ccccn1`
## Result 10.1 µM

## Task Request: COC(=O)CCC12CCC(=O)C1[C@@H](C(=O)OC)C[C@H]2C(=O)OC (stereo not given in full)
## Result > 100 µM
